TARGET_OF_ASSAY: EGFR (L858R/T790M/C797S) (Homo sapiens, UniProt P00533, C797S/L858R/T790M)
Sequence (P00533 25-1210 T790M/C797S/L858R): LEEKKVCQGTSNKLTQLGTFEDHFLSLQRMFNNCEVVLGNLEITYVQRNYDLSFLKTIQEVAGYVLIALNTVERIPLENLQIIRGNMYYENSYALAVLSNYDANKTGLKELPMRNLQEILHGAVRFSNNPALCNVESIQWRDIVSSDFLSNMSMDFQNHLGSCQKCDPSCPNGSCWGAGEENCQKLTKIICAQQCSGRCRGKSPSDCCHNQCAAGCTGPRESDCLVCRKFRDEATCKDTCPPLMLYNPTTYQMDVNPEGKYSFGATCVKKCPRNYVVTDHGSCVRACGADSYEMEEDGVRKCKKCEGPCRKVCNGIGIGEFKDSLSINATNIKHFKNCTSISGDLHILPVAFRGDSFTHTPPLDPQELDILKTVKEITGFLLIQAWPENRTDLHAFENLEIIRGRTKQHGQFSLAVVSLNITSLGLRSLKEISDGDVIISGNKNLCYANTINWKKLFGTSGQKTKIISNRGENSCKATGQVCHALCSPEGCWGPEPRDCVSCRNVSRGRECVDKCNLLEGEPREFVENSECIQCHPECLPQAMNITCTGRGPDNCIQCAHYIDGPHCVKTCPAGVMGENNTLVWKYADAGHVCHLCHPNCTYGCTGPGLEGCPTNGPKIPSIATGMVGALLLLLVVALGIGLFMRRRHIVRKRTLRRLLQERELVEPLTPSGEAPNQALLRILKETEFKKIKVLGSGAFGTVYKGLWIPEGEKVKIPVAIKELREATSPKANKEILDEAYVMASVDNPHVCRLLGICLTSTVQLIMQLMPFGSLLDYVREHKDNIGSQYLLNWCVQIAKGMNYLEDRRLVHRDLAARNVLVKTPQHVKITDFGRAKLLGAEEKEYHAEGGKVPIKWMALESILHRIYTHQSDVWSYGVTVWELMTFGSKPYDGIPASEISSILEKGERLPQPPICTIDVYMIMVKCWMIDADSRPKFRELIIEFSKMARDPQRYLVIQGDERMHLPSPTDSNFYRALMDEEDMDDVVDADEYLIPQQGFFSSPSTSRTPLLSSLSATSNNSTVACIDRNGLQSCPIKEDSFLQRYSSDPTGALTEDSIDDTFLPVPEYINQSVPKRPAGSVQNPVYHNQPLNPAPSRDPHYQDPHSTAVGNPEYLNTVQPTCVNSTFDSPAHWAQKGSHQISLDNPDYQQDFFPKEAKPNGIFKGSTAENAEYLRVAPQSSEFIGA
ASSAY_NOTES: MSA (Mobility Shift Assay) kinase activity, EGFR-L858R-T790M-C797S
Assay type: biochemical
Note: every record was labeled by where its IC50 sits among bin A = under 0.4 nM, bin B = from 0.4 nM up to 2 nM, bin C = 2 nM and over

See these solved cases before continuing.
COMPOUND	CATEGORY_LABEL
CC(C)c1ccc(N2CC(NS(C)(=O)=O)C2)c2cnc(Nc3ccnc(N4CCC(O)C(C)(F)C4)n3)cc12 (centres unmarked) [Compound P45]	bin A
CC(C)c1ccc(N2CC(C[S+](C)[O-])C2)c2cnc(Nc3ccnc(N4CCC(O)C(F)C4)n3)cc12 (centres unmarked) [Compound P17]	bin B
CC(C)c1ccc(N2CC(CC(N)=O)C2)c2cnc(Nc3ccnc(-c4cnn(S(=O)(=O)C5CC5)c4)n3)cc12 [Compound H4]	bin A
COc1cccc(-c2nccc(Nc3cc4c(C(C)C)ccc(N5CC(CS(C)(=O)=O)C5)c4cn3)n2)n1 [Compound H2]	bin C
CC(C)c1cc(C#N)c(N2CC(CS(C)(=O)=O)C2)c2cnc(Nc3ccnc(N4CCC(O)C(F)C4)n3)cc12 (centres unmarked) [Compound P16]	bin A
CC(C)c1ccc(N2CC(CS(C)(=O)=O)C2(C)C)c2cnc(Nc3ccnc(N4CCC(O)C(F)C4)n3)cc12 (centres unmarked) [Compound P8]	bin B
CNC(=O)CN1CC(c2ccc(C(C)C)c3cc(Nc4ccnc(N5CCC(O)C(F)C5)n4)ncc23)C1 (centres unmarked) [Compound P15]	bin B
CC(C)c1ccc(N2CC(CS(C)(=O)=O)C2)c2cnc(Nc3ccnc(-c4cn[nH]c4)n3)cc12 [Compound H3]	bin B
CC(C)c1ccc(N2CC(c3cccnc3)C2)c2cnc(Nc3ccnc(N4CCC(O)C(F)C4)n3)cc12 (centres unmarked) [Compound P12]	bin B
CC(C)n1c(=O)cc(N2CC(CS(C)(=O)=O)C2)c2cnc(Nc3ccnc(-c4cnn(S(=O)(=O)C5CC5)c4)n3)cc21 [Compound H5]	bin B

Query: Hi there! Could you help me figure out the category for CC(C)c1ccc(N2CC(NS(C)(=O)=O)C2)c2cnc(Nc3ccnc(N4CCC(O)CC4)c3)nc12 [Compound P6] please?
Response: bin C

Query: Which class does CC(C)c1ccc(N2CC(NS(C)(=O)=O)C2)c2cnc(Nc3ccnc(N4CCC(O)C(C)(F)C4)n3)cc12 (centres unmarked) [Compound P46] fall in?
Response: bin B

Query: Looking at CC(C)c1ccc(N2CC3(CC(S(C)(=O)=O)C3)C2)c2cnc(Nc3ccnc(N4CCC(O)C(F)C4)n3)cc12 (centres unmarked) [Compound P2] , which class would you pick?
Response: bin C

Query: Textbook exercise: identify the category of the compound given here, CC(C)n1c(=O)cc(N2CC(CS(C)(=O)=O)C2)c2cnc(Nc3ccnc(N4CCC(O)C(F)C4)n3)cc21 (centres unmarked) [Compound P14] , according to its measured value.
Response: bin A

----------
TARGET_OF_ASSAY: EGFR (L858R/C797S) (Homo sapiens, UniProt P00533, C797S/L858R)
Sequence (P00533 25-1210 C797S/L858R): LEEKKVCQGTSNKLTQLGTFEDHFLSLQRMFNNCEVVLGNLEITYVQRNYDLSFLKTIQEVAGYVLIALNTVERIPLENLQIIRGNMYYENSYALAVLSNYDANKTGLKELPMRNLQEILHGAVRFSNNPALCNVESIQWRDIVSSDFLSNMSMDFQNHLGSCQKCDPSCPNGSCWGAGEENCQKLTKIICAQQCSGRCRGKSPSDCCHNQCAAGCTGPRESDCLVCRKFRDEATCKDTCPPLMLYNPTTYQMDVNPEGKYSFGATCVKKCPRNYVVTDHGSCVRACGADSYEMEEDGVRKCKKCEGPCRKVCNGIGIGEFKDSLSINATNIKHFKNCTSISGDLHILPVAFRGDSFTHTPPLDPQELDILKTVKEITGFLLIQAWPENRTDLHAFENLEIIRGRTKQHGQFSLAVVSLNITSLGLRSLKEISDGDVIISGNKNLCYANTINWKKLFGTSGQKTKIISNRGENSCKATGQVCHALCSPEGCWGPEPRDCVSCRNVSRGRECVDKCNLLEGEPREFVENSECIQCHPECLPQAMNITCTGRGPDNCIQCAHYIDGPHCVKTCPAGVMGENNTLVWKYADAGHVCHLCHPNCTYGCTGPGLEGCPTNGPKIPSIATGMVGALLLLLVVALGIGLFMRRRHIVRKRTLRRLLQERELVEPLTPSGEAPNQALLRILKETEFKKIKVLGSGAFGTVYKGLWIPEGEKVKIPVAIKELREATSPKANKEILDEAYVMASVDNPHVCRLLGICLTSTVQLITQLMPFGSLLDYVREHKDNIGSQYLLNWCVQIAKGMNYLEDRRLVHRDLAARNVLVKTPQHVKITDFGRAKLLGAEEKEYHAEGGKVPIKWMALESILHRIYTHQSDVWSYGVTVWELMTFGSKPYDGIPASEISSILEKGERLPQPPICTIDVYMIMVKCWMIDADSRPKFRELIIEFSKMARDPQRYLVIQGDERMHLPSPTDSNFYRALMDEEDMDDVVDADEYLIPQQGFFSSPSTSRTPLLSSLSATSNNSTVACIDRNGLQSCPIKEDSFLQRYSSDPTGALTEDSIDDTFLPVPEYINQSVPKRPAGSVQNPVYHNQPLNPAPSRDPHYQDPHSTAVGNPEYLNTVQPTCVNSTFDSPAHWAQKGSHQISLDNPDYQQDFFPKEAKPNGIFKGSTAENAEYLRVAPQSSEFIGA
ASSAY_NOTES: MSA (Mobility Shift Assay) kinase activity, EGFR-L858R-C797S
Format: biochemical
What IC50 was measured for each of the following?
Answers are plain numbers, in nM.

See these solved cases before continuing.
MOLECULE	TEST_RESULT
CC(C)c1ccc(N2CC(NS(C)(=O)=O)C2)c2cnc(Nc3ccnc(N4CCC(C)(O)C(F)C4)n3)cc12 (centres unmarked)	4.2
CNC(=O)CC1CN(c2ccc(C(C)C)c3cc(Nc4ccnc(N5CCC(O)C(F)C5)n4)ncc23)C1 (centres unmarked)	43.1
CC(C)c1ccc(N2CC(NS(C)(=O)=O)C2)c2cnc(Nc3ccnc(N4CCC(O)C(C)(F)C4)n3)cc12 (centres unmarked) [Compound P45]	7.6
CC(C)c1ccc(N2CC3(CC(S(C)(=O)=O)C3)C2)c2cnc(Nc3ccnc(-c4cnn(S(=O)(=O)C5CC5)c4)n3)cc12	10.6
COC1CCN(c2nccc(Nc3cc4c(cn3)c(N3CC(CS(C)(=O)=O)C3)cc(=O)n4C(C)C)n2)CC1F (centres unmarked)	10.4

Hey, quick one: what's IC50 for each of these?
1. CCCS(=O)(=O)n1cc(-c2nccc(Nc3cc4c(C(C)C)ccc(N5CC(CS(C)(=O)=O)C5)c4cn3)n2)cn1
2. CC(C)c1ccc(N2CC(CS(C)(=O)=O)C2(C)C)c2cnc(Nc3ccnc(N4CCC(O)C(F)C4)n3)cc12 (centres unmarked)

Response:
1. 2.2
2. 83.3
